- TESTED_TARGET: T1, GFP-9S library array, motif 4 ND N98P;D124P (synthetic construct, N98P;D124P)
- T1 chain: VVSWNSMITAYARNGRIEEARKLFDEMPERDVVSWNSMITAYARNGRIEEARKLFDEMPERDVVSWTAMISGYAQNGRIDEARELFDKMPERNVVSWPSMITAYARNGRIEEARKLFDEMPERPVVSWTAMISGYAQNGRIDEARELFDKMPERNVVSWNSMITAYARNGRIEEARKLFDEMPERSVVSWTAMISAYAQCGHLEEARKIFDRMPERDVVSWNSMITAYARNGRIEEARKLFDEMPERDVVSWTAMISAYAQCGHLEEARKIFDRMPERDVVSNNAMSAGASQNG
- MEASUREMENT_DESCRIPTION: high-throughput RNA pulldown from lysate on Ni-NTA beads; HRP: 50 mM Tris pH 8, 150 mM NaCl, 1 mM beta-mercaptoethanol, 50 ug/ml BSA, 3 ug/ml yeast RNA, 0.5% heparin; ITC and FP: Tris pH 8, 200 mM KCl, 5% glycerol; MST: 50 mM Tris pH 8, 200 mM NaCl, 1 mM DTT, BSA, heparin, 0.05% Tween 20
- CONDITION_LABEL: tags: N-terminal His-eGFP; label: 5' IRDye 800CW
Examples of binders with documented pKd follow.
// scale note: pKd = -log10(conc_M); give the bare number

- AUUAAACGUGA (ssRNA) [IR-rpoA-A]: 5.85

binder AUUAUACGUGA (ssRNA) [IR-rpoA-U] , pKd observed: 6.25
